Sourced from patent US20220017636A1

target or system: T1, MB peptide complexed with HLA-A*02:01 on T2 cells (human)
T1 construct: whole, on cells
assay details: flow cytometry, peptide-loaded T2 cells;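 also: binding of single-chain Fv antibody constructs, raised in XenoMouse, to peptide-pulsed T2 cells measured by flow cytometry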
Listed next: entries and their corresponding Signal/background.
API note: the answer field is a bare number with no unit suffix.

Take a look at these entries with their results.
18179-A7 (scFv, scFv in bacterial lysate, detected with anti-Flag M2) scFv: EVQLLESGGGLVKPGGSLRLSCAASGFTFSNAWMSWVRQAPGKGLEWVGRIKGNTYGGTTDYAAPVKGRFTISRDDSKNTLFLQMNSLKTEDTAVYYCTTPSYSGSYYNYFSVMDVWGQGTTVTVSSGGGGSGGGGSGGGGSELVMTQSPSSLSASVGDRVTITCRTSQSISSYLNWYQQKPGRAPKLLIFAASSLQGGVPSRFSGSGSGTDFTLTISSLQPEDFATYYCQQTYSMPFTFGPGTKVDIK; 1.1
18182-E5 (scFv, scFv in bacterial lysate, detected with anti-Flag M2) scFv: EVQLLESGGGLVQPGGSLRLSCAASGFTFSSYAMSWVRQAPGKGLEWVSTISGSGGGTYYADSVKGRFTISRDNSKNTLYLQMNSLRAEDTAVYYCATGKGVHLGFDYWGQGTLVTVSSGGGGSGGGGSGGGGSELVLTQPPSVSVAPGQTARITCGGNNIGSKSVHWHQQKPGQAPVLVVYDDNDRPSGIPERFSGSNSGNTATLTISRVEAGDEADYYCQVWDYSSDHVVFGGGTKLTVL; 0.9

input: Query (binder): 18081-B9 (scFv, scFv in bacterial lysate, detected with anti-Flag M2) scFv: EVQLLESGPGLVKPSETLSLTCTVSGDSISSSRYYWGWIRQPPGKGLEWIGSIYYSGSTYYNPSLKSRVTISVDTSKNQFSLKLSSVTAADTAVYYCARGIFGVITYFDYWGQGTLVTVSSGGGGSGGGGSGGGGSELVMTQSPDSLAVSLGERATINCKSSQSVLYSSNNKNYLAWYQQKPGQPPKLLIYWASTRESGVPDRFSGSGSGTDFTLTISSLQAEDVAVYYCQQFYSTPITFGQGTRLEIK ; field requested: Signal/background
output: 1.1
